- measurementTarget: IRAK4 (Homo sapiens, UniProt Q9NWZ3)
- Construct: endogenous in cells; host or cells: THP-1 cells
- Sequence (Q9NWZ3 1-460): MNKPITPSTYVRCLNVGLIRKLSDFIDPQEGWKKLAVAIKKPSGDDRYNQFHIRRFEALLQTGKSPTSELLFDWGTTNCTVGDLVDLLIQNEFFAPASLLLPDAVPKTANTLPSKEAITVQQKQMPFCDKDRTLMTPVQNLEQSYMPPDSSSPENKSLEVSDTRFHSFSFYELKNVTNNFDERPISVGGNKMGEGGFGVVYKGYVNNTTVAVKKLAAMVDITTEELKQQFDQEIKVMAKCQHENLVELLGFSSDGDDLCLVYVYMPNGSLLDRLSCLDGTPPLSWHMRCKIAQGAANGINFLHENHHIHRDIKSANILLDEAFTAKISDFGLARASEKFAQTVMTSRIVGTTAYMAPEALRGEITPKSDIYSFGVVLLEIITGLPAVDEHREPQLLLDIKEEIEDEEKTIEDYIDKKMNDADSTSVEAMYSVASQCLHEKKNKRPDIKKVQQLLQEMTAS
- testDescription: ALE THP1 HTRF (Advanced Lipoxidation End Product THP1 Homogeneous Time Resolved Fluorescence)
- Assay type: cell-based
- conditionContext: THP1 cells
measuredParameter: ALE THP1 HTRF YMIN (%)

>>> datavalue("N#Cc1cnc2c(cnn2-c2cc(NC3CCCC3)c(C(=O)N[C@H]3CC[C@H](CN4CCN(c5ccc6c(c5)C(=O)N(C5CCC(=O)NC5=O)C6)CC4)CC3)cn2)c1 (stereo partly shown) [P-17]")
24.6

(I) C[C@H](C#N)Nc1cc(-n2ncc3cnc(N)nc32)ncc1C(=O)N[C@H]1CC[C@H](CCN2CCN(c3ccc(C4CCC(=O)NC4=O)cc3)CC2)CC1 (stereo partly shown) [P-159]
(II) CC(C)Nc1cc(Nc2ccc(C#N)cc2Cl)ncc1C(=O)N[C@H]1CC[C@H](CCN2CCN(c3ccc(C4CCC(=O)NC4=O)cc3)CC2)CC1 (stereo partly shown) [P-134]
(III) N#Cc1cnc2c(cnn2-c2cc(NC3CC3)c(C(=O)NC3CCC(CCN4CCN(c5ccc(C6CCC(=O)NC6=O)cn5)CC4)CC3)cn2)c1 (stereo not shown) [P-98]
Input line: Form: Sort by [ALE THP1 HTRF YMIN] Order [ ascending ] Thanks in advance for listing the labels in the requested order.
Output line: I, III, II

All values here come from patent US20240109881A1.
